Target: T1, biotinylated GITR (human, UniProt Q9Y5U5 26-161, limits assumed, biotinylated (sites not given))
T1 construct: also called GITR-bio; Biotin-GITR
T1 sequence: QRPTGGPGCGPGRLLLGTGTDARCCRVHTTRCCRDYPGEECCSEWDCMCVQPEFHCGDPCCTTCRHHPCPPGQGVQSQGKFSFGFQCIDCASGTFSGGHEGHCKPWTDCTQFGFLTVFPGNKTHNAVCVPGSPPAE
Test: BLI (Octet), biotin-GITR on streptavidin tips, antibody supernatant
MEASURED_PROPERTY: Kd (nM)
Just the number in nM, nothing appended.

Look over these answered cases.
Incoming: Fill in: Kd of germline variant antibody 78 (H1917D01 / K1917D01) (antibody, V domains shown, IGHG1/IGKC expression vectors; measured from CHO culture supernatant; also called Antibody ID 78) VH: QVQLVQSGAEVKKPGASVKVSCKGSGYTFTDYAMYWVRQAPGQGLEWIGVIKTYSGGVTYNQKFRDRATMTVDTSISTAYMELSRLRGDDTAVYYCAKSGTVRGFAYWGRGTLVTVSS VL: DIVMTQSPDSLAVSLGERATINCKSSQSLLNSGNQKNYLTWYHQKPGQPPKMLIYWASTRESGVPDRFTGSGSGTDFTLTISSVQAEDVAVYHCQNDYSYPYTFGQGTKLEIK is ___
Outgoing: 1

Incoming: May I ask what Kd has been recorded for germline variant antibody 52 (H1916F05 / K1916F05) (antibody, V domains shown, IGHG1/IGKC expression vectors; measured from CHO culture supernatant; also called Antibody ID 52) VH: QVQLVQSGTEVKKPGASVKVSCKGSGYTFTDYAMYWVRQAPGQGLEWMGLIRTYSGGVSYNQKFRERVTMTVDKSISTAYMELSRLRSDDTAVYYCAKSGTVRGFAYWGQGTLVTVSS VL: DIVMTQSPDSLAVSLGERATINCKSSQSLLNSGNQKNYLTWYQQKPGQPPKLLIYWASTRESGVPDRFSGSGSGTDFTLTISSLQAEDVAVYHCQNDYSFPYTFGQGTKLEIK ?
Outgoing: 1.07

New cases:
Incoming: Field request: Kd | item: germline variant antibody 6 (H1916A07 / K1916A07) (antibody, V domains shown, IGHG1/IGKC expression vectors; measured from CHO culture supernatant; also called Antibody ID 6) VH: QVQLVQSGAEVKKPGASVKVSCKGSGYTFTEYAMYWVRQAPGQGLEWMGLIRTFSGGVSYNQKFKGRATMTVDTSISTAYMELSRLRSDDTAVYYCAKSGTVRGFAYWGQGTLVTVSS VL: DIVMTQSPDSLAVSLGERATINCKSSQSLLNSGNQKNYLSWYQQKPGQPPKMLIYWASTRESGVPDRFTGSGSGTDFTLTISSLQAEDVAVYHCQNDYSYPYTFGQGTKLEIK
Outgoing: 2.7

Incoming: For the binder shown here, germline variant antibody 34 (H1916D04 / K1916D04) (antibody, V domains shown, IGHG1/IGKC expression vectors; measured from CHO culture supernatant; also called Antibody ID 34) VH: QVQLVQSGAEVKKPGASVKVSCKASGYTFTDYAMYWVRQAPGQGMEWIGVIRTFSGGVTYNQKFRGRVTMTVDTSISTAYMELSRLRSDDTAVYYCAKSGTVRGFAYWGQGTLVTVSS VL: DIVMTQSTDSLAVSLGERATINCKSSQSLLNSSNQKNYLTWYQQKPGQPPKLLIYWASTRESGVPDRFTGSGSGTDFTLTISSLQAEDVAVYHCQNDYSYPYTFGQGTKLEIK , give the reported Kd.
Outgoing: 0.458

Incoming: Any idea what Kd was measured for germline variant antibody 71 (H1917B07 / K1917B07) (antibody, V domains shown, IGHG1/IGKC expression vectors; measured from CHO culture supernatant; also called Antibody ID 71) VH: QVQLVQSGAEVKKPGASVKVSCKASGYTFTGYAMYWVRQAPGQGMEWMGVIRTFSGGVTYNQKFRGRATMTVDTSISTAYMELSRLRSDDTAVYYCAKSGTVRGFAYWGQGTLVTVSS VL: DIVMTQSPDSLAVSLGERATINCKSSQSLLNSSNQKNYLTWYQQKPGQPPKLLIYWASTRESGVPDRFTGSGSGTDFTLTISSVQAEDVAVYHCQNDYSYPYTFGQGTKLEIK ?
Outgoing: 0.241

The reported measurements were obtained from patent US20210070872A1.
